Molecular target: SIRT1 (Homo sapiens, UniProt Q96EB6)
Assay: Mass spectrometry based SIRT1 deacetylase activation assay (acetylated p53-derived peptide substrate)
Assay type: biochemical
Conditions: 0.5 μM peptide substrate, 120 μM βNAD+, 10 nM SIRT1, 25 minutes at 25° C.
ENDPOINT_NAME: EC1.5

Solved cases below.
// lookup EC1.5 for O=C(Nc1ccc(OC[C@@H](O)CO)cc1)c1cccc2[nH]c(-c3cccnc3)nc12
A (EC1.5<1.0 uM)

Name the recorded EC1.5 for O=C(Nc1cccc(CN2CCOCC2)n1)c1cccc2[nH]c(-c3ccccc3C(F)F)nc12 .
A (EC1.5<1.0 uM)

I'd like to know its EC1.5. The molecule in question is Cc1cnc(NC(=O)c2cncc3nc(-c4ccc(OC[C@H](O)CO)cc4C(F)F)[nH]c23)s1
A (EC1.5<1.0 uM)

Could you tell me which EC1.5 is on file for O=C(Nc1cccnc1)c1cc(F)cc2[nH]c(-c3ccc(OC[C@@H](O)CO)cc3C(F)F)nc12 ?
A (EC1.5<1.0 uM)

Continuing:
Request the reported EC1.5 associated with O=C(Nc1cccc(OC[C@@H](O)CO)c1)c1cccc2[nH]c(-c3ccccc3C(F)F)nc12
A (EC1.5<1.0 uM)

Item under review: Cc1cnc(NC(=O)c2cc(F)cc3nc(-c4ccccc4C(F)F)[nH]c23)s1 . Reported EC1.5?
A (EC1.5<1.0 uM)

Entry Cc1cnc(NC(=O)c2cc(F)cc3nc(-c4ccc(F)cc4C(F)F)[nH]c23)s1 has what EC1.5?
A (EC1.5<1.0 uM)

---

Biological target: UniProt Q96EB6
Assay: Mass spectrometry based SIRT1 deacetylase activation assay (acetylated p53-derived peptide substrate)
Format: biochemical
ENDPOINT_NAME: EC1.5

The examples below pair each entry with its known result.
Would you mind telling me what EC1.5 value was observed for O=C(Nc1cccnc1)c1cccc2[nH]c(-c3cccc(N4CCOCC4)c3)nc12 ?
A (EC1.5<1.0 uM)

Look up EC1.5: CCOC(=O)c1csc(NC(=O)c2cccc3[nH]c(-c4cccc(C(F)(F)F)c4)nc23)n1
B (EC1.5 1-25 uM)

Return reported EC1.5; argument: O=C(NCc1cccnc1)c1cccc2[nH]c(-c3cccc(C(F)(F)F)c3)nc12
C (EC1.5 >25 uM)

Requested read-out: EC1.5. Entry: O=C(Nc1ccccn1)c1cccc2[nH]c(-c3ccccc3C(F)(F)F)nc12
B (EC1.5 1-25 uM)

Sample O=C(Nc1cccnc1)c1cccc2[nH]c(-c3ccccc3C(F)(F)F)nc12 — what was its EC1.5?
A (EC1.5<1.0 uM)

Moving on to the next compound.
Which EC1.5 value is on record for O=C(Nc1nccs1)c1cccc2[nH]c(-c3cc(F)cc(C(F)(F)F)c3)nc12 ?
B (EC1.5 1-25 uM)

---

Biological target: SIRT1 (Homo sapiens)
Assay: Mass spectrometry based SIRT1 deacetylase activation assay (acetylated p53-derived peptide substrate)
Format: biochemical
Details: 0.5 μM peptide substrate, 120 μM βNAD+, 10 nM SIRT1, 25 min at 25° C., read-out: EC1.5
ENDPOINT_NAME: EC1.5

// solved cases for EC1.5 follow
Value wanted: EC1.5 (SIRT1 (Homo sapiens)) of entry O=C(Nc1cccc2[nH]c(-c3ccc(Cl)cc3C(F)(F)F)nc12)c1cccnc1
1000 to 25000 nM

Reported EC1.5 for SIRT1 (Homo sapiens), given O=C(Nc1ccccn1)c1cccc2[nH]c(-c3ccc(OC[C@@H](O)CO)cc3C(F)F)nc12 ?
< 1000 nM

What value of EC1.5 on SIRT1 (Homo sapiens) does O=C(Nc1ccccn1)c1cccc2[nH]c(-c3ccccc3OC3CCNC3)nc12 (stereo not drawn) have?
1000 to 25000 nM

I'm curious: which EC1.5 was measured for Cc1cnc(NC(=O)c2cccc3[nH]c(-c4ccc(N5CCOCC5)cc4C(F)(F)F)nc23)s1 tested on SIRT1 (Homo sapiens)?
< 1000 nM

Request: EC1.5, test system SIRT1 (Homo sapiens), entry O=C(NCc1ccccn1)c1cccc2[nH]c(-c3ccc(F)cc3C(F)(F)F)nc12
1000 to 25000 nM

# evaluate next
Could you share what EC1.5 was measured for Cc1cnc(NC(=O)c2cccc3[nH]c(-c4ccc(OCC(O)CO)cc4C(F)F)nc23)s1 (stereo not drawn) , tested on SIRT1 (Homo sapiens)?
< 1000 nM

---

Biological target: UniProt Q96EB6
Assay: Mass spectrometry based SIRT1 deacetylase activation assay (acetylated p53-derived peptide substrate)
Assay type: biochemical
ENDPOINT_NAME: EC1.5

Look up EC1.5: Cc1nc(-c2ccccc2)c(-c2nc3c(C(=O)Nc4ccccn4)cccc3[nH]2)s1
A (EC1.5<1.0 uM)

Sample Cn1nc(-c2ccccc2)cc1-c1nc2c(C(=O)Nc3nccs3)cccc2[nH]1 — what was its EC1.5?
A (EC1.5<1.0 uM)

May I ask what EC1.5 has been recorded for Cn1nc(C(F)(F)F)c(-c2nc3c(C(=O)Nc4nccs4)cccc3[nH]2)c1Cl ?
A (EC1.5<1.0 uM)

---

Biological target: SIRT1 (Homo sapiens, UniProt Q96EB6)
Sequence (Q96EB6 1-747): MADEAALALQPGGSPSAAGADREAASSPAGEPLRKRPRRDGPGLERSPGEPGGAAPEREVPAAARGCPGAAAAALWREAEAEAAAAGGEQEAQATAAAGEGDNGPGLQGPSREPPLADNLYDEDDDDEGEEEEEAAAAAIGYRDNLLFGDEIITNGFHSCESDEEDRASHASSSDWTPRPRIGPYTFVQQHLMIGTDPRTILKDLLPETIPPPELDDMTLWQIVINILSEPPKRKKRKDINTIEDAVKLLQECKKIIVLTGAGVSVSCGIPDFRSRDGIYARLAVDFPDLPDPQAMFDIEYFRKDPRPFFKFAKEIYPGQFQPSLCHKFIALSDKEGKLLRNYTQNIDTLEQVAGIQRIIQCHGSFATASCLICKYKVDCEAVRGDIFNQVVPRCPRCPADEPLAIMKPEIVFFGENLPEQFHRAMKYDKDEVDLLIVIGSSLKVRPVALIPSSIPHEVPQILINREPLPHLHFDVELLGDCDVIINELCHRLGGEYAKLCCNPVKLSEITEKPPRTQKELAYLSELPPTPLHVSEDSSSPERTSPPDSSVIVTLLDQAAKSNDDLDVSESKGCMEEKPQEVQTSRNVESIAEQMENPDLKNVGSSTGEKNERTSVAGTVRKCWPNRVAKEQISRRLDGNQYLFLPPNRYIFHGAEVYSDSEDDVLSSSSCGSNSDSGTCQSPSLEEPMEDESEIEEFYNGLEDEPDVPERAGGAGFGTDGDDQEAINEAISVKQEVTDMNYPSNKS
Experiment: Mass spectrometry based SIRT1 deacetylase activation assay (acetylated p53-derived peptide substrate)
Format: biochemical
ENDPOINT_NAME: EC1.5

Observe how each entry below is paired with its result.
Given the entry O=C(Nc1nccs1)c1cccc2[nH]c(-c3ccc(Cl)nc3)nc12 , report its measured EC1.5.
B (EC1.5 1-25 uM)

EC1.5 for O=C(Nc1nccs1)c1cccc2[nH]c(-c3ccccc3OCCN3CCOCC3)nc12 ?
A (EC1.5<1.0 uM)

Which measured EC1.5 value corresponds to Cc1cc(NC(=O)c2cccc3[nH]c(-c4ccccc4C(F)(F)F)nc23)n(C)n1 ?
A (EC1.5<1.0 uM)

Recorded EC1.5 of Cn1ccc(-c2nc3c(C(=O)Nc4nccs4)cccc3[nH]2)n1 , please.
B (EC1.5 1-25 uM)

Bench note: what EC1.5 did O=C(Nc1ccc(Cl)cn1)c1cccc2[nH]c(-c3cccc(C(F)(F)F)c3)nc12 show?
B (EC1.5 1-25 uM)

Reported EC1.5, compound O=C(Nc1nccs1)c1cccc2[nH]c(-c3cccc(N4CCOCC4)c3)nc12 : ____
A (EC1.5<1.0 uM)

The record that follows has no EC1.5 shown yet.
# query: EC1.5 of entry O=C(Nc1cccc2[nH]c(-c3cccc(N4CCOCC4)c3)nc12)c1ccccn1
B (EC1.5 1-25 uM)

---

Target: UniProt Q96EB6
Experiment: Mass spectrometry based SIRT1 deacetylase activation assay (acetylated p53-derived peptide substrate)
Format: biochemical
Conditions: 0.5 μM peptide substrate, 120 μM βNAD+, 10 nM SIRT1, 25 min at 25° C., read-out: EC1.5
ENDPOINT_NAME: EC1.5

Record excerpt, results attached:
Form: Entry = O=C(Nc1ccc(OCC(O)CO)cc1)c1cccc2[nH]c(-c3cc(F)ccc3C(F)(F)F)nc12 (centres unmarked) [Compound 494] | System = UniProt Q96EB6 | EC1.5 = ____
< 1000 nM

Lab note: need EC1.5 with UniProt Q96EB6 for entry CC(C)N1CCN(CCOc2ccccc2-c2nc3c(C(=O)Nc4ccccn4)cccc3[nH]2)CC1 [Compound 486] , please look it up.
1000 to 25000 nM

What is its EC1.5 for UniProt Q96EB6? Entry: Cc1cc(C)nc(NC(=O)c2cccc3[nH]c(-c4ccnn4-c4ccccc4)nc23)c1 [Compound 422]
< 1000 nM

Could you share what EC1.5 was measured for Cc1cnc(NC(=O)c2cccc3[nH]c(-c4ccc5c(c4)NC(=O)CO5)nc23)s1 [Compound 534] , tested on UniProt Q96EB6?
< 1000 nM

Short answer please: EC1.5, UniProt Q96EB6, entry O=C(Nc1ccccn1)c1cccc2[nH]c(-c3cc(F)cc(F)c3OCCN3CCOCC3)nc12 [Compound 586]
1000 to 25000 nM

# query: EC1.5 | item Cc1cnc(NC(=O)c2cccc3[nH]c(-c4ccc5c(c4)CC(C)(C)O5)nc23)s1 [Compound 500] | system: UniProt Q96EB6
< 1000 nM

Param readout = EC1.5; param system = UniProt Q96EB6; param query = O=C(NC1CCNCC1)c1cccc2[nH]c(-c3ccc(Cl)cc3C(F)(F)F)nc12 [Compound 453] ; response: value
> 25000 nM

Others:
Give recorded EC1.5 with UniProt Q96EB6 for the following molecule: CS(=O)(=O)c1ccccc1-c1nc2c(C(=O)Nc3cccnc3)cccc2[nH]1 [Compound 518]
1000 to 25000 nM
